These data points were gathered from patent US20190119282A1.

- TARGET SYSTEM: PAR2 (HT-29 cells, trypsin activation) (Homo sapiens, UniProt P55085)
- Construct: host or cells: HT-29 cells
- PROCEDURE TEXT: Ca FLIPR TETRA assay, ANTAGONIST mode, stimulation with 3.1 U/mL trypsin
- Type: cell-based
- EXPERIMENTAL CONTEXT: HT-29 cells, antagonist mode, stimulation with 3.1 U/mL trypsin
// reported log10(IC50) for each item listed
Field: value | Transform: log10 | Quantity: IC50 | Unit: nM

Worked cases, log10(IC50) given:
# COMPOUND, RECORDED RESULT
data = [
    ("Cc1nnc(C(=O)N2CCN(C(=O)c3cn4nc(C5CCC(F)(F)CC5)cc(C(C)(C)C)c4n3)C(C)(C)C2)[nH]1", 1.06),
    ("Cc1ncc(C(=O)N2CCN(C(=O)c3cn4nc(-c5ccc(C)c(F)c5)cc(C(C)(C)C)c4n3)C(C)(C)C2)[nH]1", 0.20),
    ("CCOC(=O)/C=C/C(=O)N1CCN(C(=O)c2cn3nc(-c4ccc(F)cc4)cc(C(C)(C)C)c3n2)C(C)(C)C1", 0.30),
]

For this compound ( CC(C)c1cc(-c2ccc(F)cc2)nn2cc(C(=O)N3CCN(C(=O)C(C)(O)C(F)(F)F)CC3(C)C)nc12 (centres unmarked) ), measured log10(IC50) is 1.06

For reference, reported log10(IC50) for `Cc1nc(C(=O)N2CCN(C(=O)c3cn4nc(-c5ccc(F)c(Cl)c5)cc(C(C)C)c4n3)C(C)(C)C2)n[nH]1` stands at 0.63

====

- TARGET SYSTEM: PAR2 (HT-29 cells, trypsin activation) (Homo sapiens, UniProt P55085)
- Construct: host or cells: HT-29 cells
- PROCEDURE TEXT: Ca FLIPR TETRA assay, ANTAGONIST mode, stimulation with 3.1 U/mL trypsin
- Format: cell-based
- EXPERIMENTAL CONTEXT: HT-29 cells, stimulation with 3.1 U/mL trypsin
Overview of reported IC50 across a group of compounds:
Remember to quote the unit after the number.

Solved entries:
# COMPOUND, RECORDED RESULT
data = [
    ("COc1ccc(CC(=O)N2CCN(C(=O)c3cn4nc(-c5ccc(F)cc5)cc(C(C)C)c4n3)C[C@@H]2C)cc1", "6 nM"),
    ("CC(C)CC(O)C(=O)N1CCN(C(=O)c2cn3nc(-c4ccc(F)cc4)cc(C(C)C)c3n2)C[C@@H]1C (stereo partly shown)", "4 nM"),
    ("CC(C)c1cc(-c2ccc(F)cc2)nn2cc(C(=O)N3CCN(C(=O)[C@H](O)CC(C)(C)C)[C@@H](C)C3)nc12", "0.6 nM"),
]

The record that follows has no IC50 shown yet.
The observed IC50 for `CC1(C)CN(C(=O)C2(O)CCC2)CCN1C(=O)c1cn2nc(-c3ccc(F)cc3)cc(C(F)(F)F)c2n1` when tested with PAR2 (HT-29 cells, trypsin activation) (Homo sapiens, UniProt P55085) stands at 250 nM

====

Measured IC50 accompanies every entry in the list below.
- TARGET SYSTEM: PAR2 (HT-29 cells, trypsin activation) (Homo sapiens)
- Construct: host or cells: HT-29 cells
- PROCEDURE TEXT: Ca FLIPR TETRA assay, ANTAGONIST mode, stimulation with 3.1 U/mL trypsin
- Type: cell-based
- EXPERIMENTAL CONTEXT: HT-29 cells, antagonist mode, stimulation with 3.1 U/mL trypsin
Number in nM, nothing else.

# COMPOUND STRING, IC50 [nM]
measured = [
    ("Cc1ccc(-c2cc(C(C)(C)C)c3nc(C(=O)N4CCN(C(=O)c5cc(C)n[nH]5)CC4(C)C)cn3n2)cc1", 0.5),
]

Kindly note the recorded IC50 for `CC(C)c1cc(-c2ccc(F)cc2)nn2cc(C(=O)N3CCN(C(=O)c4ncc[nH]4)CC3(C)C)nc12` , which is 8.5

IC50 reading for `Cc1cc(-c2cc(C(C)C)c3nc(C(=O)N4CCN(C(=O)c5ccn[nH]5)CC4(C)C)cn3n2)ccc1F` : 6.5

IC50 reading for `Cc1ccc(-c2cc(C(C)C)c3nc(C(=O)N4CCN(C(=O)C(C)(C)O)CC4(C)C)cn3n2)cc1` : 39.8

====

Measured pIC50 accompanies every entry in the list below.
- TARGET SYSTEM: PAR2 (HT-29 cells, SLIGKV activation) (Homo sapiens, UniProt P55085)
- Construct: host or cells: HT-29 cells
- Sequence (P55085 26-397): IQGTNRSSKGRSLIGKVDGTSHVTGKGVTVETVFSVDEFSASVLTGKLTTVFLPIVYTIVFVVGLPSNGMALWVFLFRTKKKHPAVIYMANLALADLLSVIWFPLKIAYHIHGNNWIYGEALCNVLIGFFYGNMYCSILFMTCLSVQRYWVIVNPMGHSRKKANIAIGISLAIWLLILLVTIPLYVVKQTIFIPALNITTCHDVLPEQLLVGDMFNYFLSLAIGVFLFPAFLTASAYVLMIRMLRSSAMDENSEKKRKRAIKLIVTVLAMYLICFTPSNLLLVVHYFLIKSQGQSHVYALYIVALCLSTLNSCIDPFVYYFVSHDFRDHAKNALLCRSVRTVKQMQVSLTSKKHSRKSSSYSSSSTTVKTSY
- PROCEDURE TEXT: Ca FLIPR TETRA assay, ANTAGONIST mode, stimulation with 8 μM SLIGKV
- Assay type: cell-based
- EXPERIMENTAL CONTEXT: HT-29 cells, antagonist mode, stimulation with 8 μM SLIGKV
pIC50 is a log-scale quantity: -log10 of the concentration expressed in molar.

These solved cases illustrate the format of a correct answer.
# COMPOUND STRING, TARGET SYSTEM, pIC50
data = [
    ("C[C@@H]1CN(c2cc(-c3ccc(F)cc3)nn3cc(C(=O)N4CCN(C(=O)C(C)(C)O)CC4(C)C)nc23)C[C@H](C)O1", "PAR2 (HT-29 cells, SLIGKV activation) (Homo sapiens, UniProt P55085)", 6.93),
    ("Cc1ncc(C(=O)N2CCN(C(=O)c3cn4nc(-c5ccc(C(F)(F)F)cc5)cc(C(C)(C)C)c4n3)C(C)(C)C2)[nH]1", "PAR2 (HT-29 cells, SLIGKV activation) (Homo sapiens, UniProt P55085)", 8.77),
]

Kindly review the next compound as well.
Memo: `Cc1ccc(-c2cc(C(C)(C)C)c3nc(C(=O)N4CCNC(=O)C4(C)C)cn3n2)cc1` , reported pIC50: 8.54

====

- TARGET SYSTEM: PAR2 (HT-29 cells, SLIGKV activation) (Homo sapiens)
- Construct: host or cells: HT-29 cells
- PROCEDURE TEXT: Ca FLIPR TETRA assay, ANTAGONIST mode, stimulation with 8 μM SLIGKV
- Assay type: cell-based
- EXPERIMENTAL CONTEXT: HT-29 cells, antagonist mode, stimulation with 8 μM SLIGKV
# pIC50 values compiled below
Expect pIC50 as a plain number equal to -log10 of the molar concentration.

// solved cases for pIC50 follow
# COMPOUND, TARGET SYSTEM, RECORDED RESULT
data = [
    ("CC(C)(C)c1cc(-c2ccc(C(F)(F)F)cc2)nn2cc(C(=O)N3CCN(c4cn[nH]c4)C(=O)C3(C)C)nc12", "PAR2 (HT-29 cells, SLIGKV activation) (Homo sapiens)", 8.66),
    ("CC(C)(C)c1cc(-c2ccc(F)cc2F)nn2cc(C(=O)N3CCNC(=O)C3(C)C)nc12", "PAR2 (HT-29 cells, SLIGKV activation) (Homo sapiens)", 8.21),
]

The reported value for `Cc1cc(-c2cc(C(C)C)c3nc(C(=O)N4CCN(C(=O)C(C)(C)O)CC4(C)C)cn3n2)ccc1F` in terms of pIC50 is 7.79

Entry `Cc1nc(C(=O)N2CCN(C(=O)c3cn4nc(-c5ccc(F)c(C)c5)cc(C(C)(C)C)c4n3)C(C)(C)C2)c[nH]1` — recorded pIC50 = 8.72

pIC50 for `Cc1n[nH]cc1C(=O)N1CCN(C(=O)c2cn3nc(-c4ccc(F)cc4)cc(C(C)C)c3n2)C(C)(C)C1` is 7.39

For record CC(C)c1cc(-c2ccc(F)cc2)nn2cc(C(=O)N3CCN(C(=O)C4CC(O)(C(F)(F)F)C4)CC3(C)C)nc12 (stereo not drawn) the listed pIC50 is 10.00

The compound identified as `Cc1ccc(-c2cc(C(C)C)c3nc(C(=O)N4CCN(C(=O)C(C)(C)O)CC4(C)C)cn3n2)cc1` registered its pIC50 at 7.61

pIC50 recorded for this compound, CC(C)c1cc(-c2ccc(C(F)(F)F)cc2)nn2cc(C(=O)N3CCN(C(=O)C4CC(C)(O)C4)CC3(C)C)nc12 (stereo not drawn) , is 8.89

pIC50 measured on `Cc1ccc(-c2cc(C(C)C)c3nc(C(=O)N4CCN(C(=O)c5nnc(C)o5)CC4(C)C)cn3n2)cc1` = 7.88

Field pIC50 (entry `CCOC(=O)/C=C/C(=O)N1CCN(C(=O)c2cn3nc(-c4ccc(F)cc4)cc(C(C)(C)C)c3n2)C(C)(C)C1` ) reads 8.92

Looking up `CC(C)(C)c1cc(-c2ccc(F)c(Cl)c2)nn2cc(C(=O)N3CCN(C(=O)[C@H]4CC[C@@H](C(=O)O)CC4)CC3(C)C)nc12` , I see its pIC50 listed as 9.52

The compound listed as `Cc1ccc(-c2cc(C(C)C)c3nc(C(=O)N4CCN(C(=O)c5ccncn5)CC4(C)C)cn3n2)cc1` has a reported pIC50 of 8.21

For record `COC(=O)CCC(=O)N1CCN(C(=O)c2cn3nc(-c4ccc(F)cc4)cc(C(C)(C)C)c3n2)C(C)(C)C1` the listed pIC50 is 8.66
